All figures here come from ChEMBL document CHEMBL5576127.

Tested on: HepG2
PROTOCOL_DESCRIPTION: Antiproliferative activity against human HepG2 cells assessed as inhibition of cell proliferation incubated for 48 hrs by MTT assay
Format: functional, cell-based
TEST_PARAMETERS: HepG2, 48 h
QUANTITY_KIND: pIC50
The read-out pIC50 is expressed as -log10 of concentration in moles per litre.

SMI	READING
CC1(C)CC[C@]2(C(=O)OCCc3ccc(OCc4ccc(B5OC(C)(C)C(C)(C)O5)cc4)cc3)CC[C@]3(C)[C@H](C(=O)C=C4[C@@]5(C)C=C(C#N)C(=O)C(C)(C)[C@@H]5CC[C@]43C)[C@@H]2C1	5.70
CC1(C)CC[C@]2(C(=O)OCCCOC(=O)Cc3ccc(OCc4ccc(B5OC(C)(C)C(C)(C)O5)cc4)cc3)CC[C@]3(C)[C@H](C(=O)C=C4[C@@]5(C)C=C(C#N)C(=O)C(C)(C)[C@@H]5CC[C@]43C)[C@@H]2C1	5.60
CC1(C)CC[C@]2(C(=O)OCCCCOC(=O)c3ccc(OCc4ccc(B5OC(C)(C)C(C)(C)O5)cc4)cc3)CC[C@]3(C)[C@H](C(=O)C=C4[C@@]5(C)C=C(C#N)C(=O)C(C)(C)[C@@H]5CC[C@]43C)[C@@H]2C1	5.19
CC1(C)CC[C@]2(C(=O)OCCCOC(=O)c3ccc(OCc4ccc(B5OC(C)(C)C(C)(C)O5)cc4)cc3)CC[C@]3(C)[C@H](C(=O)C=C4[C@@]5(C)C=C(C#N)C(=O)C(C)(C)[C@@H]5CC[C@]43C)[C@@H]2C1	5.52

# input for lookup
input: For the compound `CC1(C)CC[C@]2(C(=O)OCCCCCOc3ccc(NC(=O)OCc4ccc(B5OC(C)(C)C(C)(C)O5)cc4)cc3)CC[C@]3(C)[C@H](C(=O)C=C4[C@@]5(C)C=C(C#N)C(=O)C(C)(C)[C@@H]5CC[C@]43C)[C@@H]2C1` , give its measured pIC50 value.
output: 5.41
